Target: Recombinant human Tdp2 (Homo sapiens, UniProt O95551)
Construct: made in house
Sequence (O95551 1-362): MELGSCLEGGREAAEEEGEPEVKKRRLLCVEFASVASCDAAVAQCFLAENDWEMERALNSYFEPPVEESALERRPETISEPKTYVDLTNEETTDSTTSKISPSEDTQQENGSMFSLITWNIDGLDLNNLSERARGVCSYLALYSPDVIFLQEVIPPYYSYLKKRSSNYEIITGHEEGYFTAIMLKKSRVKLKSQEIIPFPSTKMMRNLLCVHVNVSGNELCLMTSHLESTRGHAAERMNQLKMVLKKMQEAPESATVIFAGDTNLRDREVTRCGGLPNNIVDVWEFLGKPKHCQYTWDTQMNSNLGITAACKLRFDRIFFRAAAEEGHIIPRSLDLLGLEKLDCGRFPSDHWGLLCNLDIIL
Assay: Gel-based Tdp2 activity assay
Type: biochemical
Details: (+)-usnic acid derivatives
pIC50: −log10 of the molar value.
pIC50 overview
METRIC_NAME: pIC50

COMPOUND	TARGET_UNDER_TEST	RESULT
CC(=O)C1=C(O)C=C2Oc3c(-c4csc(NN=Cc5c[nH]c6ccccc56)n4)c(O)c(C)c(O)c3C2(C)C1=O (single isomer, unassigned; (+)) [(+)-11d]	Recombinant human Tdp2 (Homo sapiens, UniProt O95551)	< 4.30
COc1ccc(C=NNc2nc(-c3c(O)c(C)c(O)c4c3OC3=CC(O)=C(C(C)=O)C(=O)C34C)cs2)cc1CN1CCN(c2ccc(F)cc2)CC1 (single isomer, unassigned; (+)) [(+)-11h]	Recombinant human Tdp2 (Homo sapiens, UniProt O95551)	< 4.30
CC(=O)C1=C(O)C=C2Oc3c(-c4csc(NN=Cc5ccc[nH]5)n4)c(O)c(C)c(O)c3C2(C)C1=O (single isomer, unassigned; (+)) [(+)-11a]	Recombinant human Tdp2 (Homo sapiens, UniProt O95551)	< 4.30
